Just for reference, PubChem BioAssay (NCATS) is where these values come from.

assay: Quantitative High-Throughput drug screen in 47 multiple myeloma cell lines against the NCATS MIPE library collection: OCIMY7_PLB cell viability assay (AID 1918987); details: OCI-MY7 myeloma viability, CellTiter-Glo ATP, 48 h; also: potency is read from the fitted curve at half-maximal effect; nearly all actives have a fitted effect of over 65% in size
Inconclusive results are not listed. Calls of active or inactive are those of the source. Calls follow the shape of the dose curve; as a rule, active = well fitted cell-killing curve with a large enough effect; inconclusive = small, poorly fitted or top-dose-only effect, or effect the other way; inactive = no such curve, though single readings can be large or run the other way.
Readout Kind: Potency

Nc1ncnc2c1c(-c1cccc(OCc3ccccc3)c1)cn2C1CC(CN2CCC2)C1 (stereo not drawn) :: 0.296 µM (active)
CC(=O)NCCC(=O)N[C@@H](CCC(N)=O)C(=O)N[C@@H](CO)C(=O)N[C@@H](CCC(N)=O)C(=O)N[C@@H](CCC(N)=O)C(=O)N[C@H](C(=O)N[C@@H](Cc1ccccc1)C(=O)N[C@]1(C)CCCCCCC=CCCC[C@@](C)(C(=O)N[C@@H](CCC(N)=O)C(=O)N[C@@H](CC(N)=O)C(N)=O)NC(=O)[C@H](CC(C)C)NC(=O)[C@H](CC(C)C)NC(=O)[C@@H](CCCNC(=N)N)NC(=O)[C@H](Cc2c[nH]c3ccccc23)NC(=O)[C@H](CC(C)C)NC(=O)[C@H](CC(N)=O)NC1=O)[C@H](C)O :: 20.9 µM (active)
N#CC(c1ccc(Cl)cc1)c1c(Cl)cc(-n2ncc(=O)[nH]c2=O)cc1Cl (stereo not drawn) :: 4.69 µM (active)

* * *

test: qHTS of pediatric cancer cell lines to identify multiple opportunities for drug repurposing: Primary screen for A673 cells (AID 1347092); settings: A673 Ewing sarcoma viability, CellTiter-Glo ATP luminescence, 48 h; series mostly up to 46 µM; also: nearly all actives have a fitted effect of over 45% in size
Inconclusive results are not listed. The source made the active and inactive calls. Calls follow the shape of the dose curve; as a rule, active = well fitted cell-killing curve with a large enough effect; inconclusive = small, poorly fitted or top-dose-only effect; inactive = no such curve, though single readings can be large or run the other way.
Possible outcomes: active, inactive

CC=C(C(=CC)c1ccc(O)cc1)c1ccc(O)cc1 :: active
Cc1cnc(Nc2cccc(CN3CCOCC3)c2)nc1Nc1cccc(S(=O)(=O)NC(C)(C)C)c1 :: active
COc1cccc(OC)c1-c1cc(C(=O)NC2(C(=O)O)C3CC4CC(C3)CC2C4)nn1-c1ccnc2cc(Cl)ccc12 (stereo unspecified) :: inactive
CN1CCN2c3ncccc3Cc3ccccc3C2C1 (stereo unspecified) :: inactive
Cc1cccc(-c2[nH]c(C(C)(C)C)nc2-c2ccc3c(c2)OCO3)n1 :: active
N#CC(c1ccc(Cl)cc1)c1c(Cl)cc(-n2ncc(=O)[nH]c2=O)cc1Cl (stereo unspecified) :: active

* * *

Experiment: qHTS of pediatric cancer cell lines to identify multiple opportunities for drug repurposing: Confirmatory screen for NB-EBc1 cells (AID 1347115);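 also: cells exposed to compound for 48 h before the viability read; nearly all actives have a fitted effect of over 45% in size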; also: potency is read from the fitted curve at half-maximal effect
Conditions: NB-EBc1 neuroblastoma cells, viability (cytotoxicity); series mostly up to 45.9 µM
Experimental: Drug repurposing or repositioning has been offered as a strategy for drug development in oncology programs. […] [1] Shen, M et al. Quantitative high-throughput phenotypic screening of pediatric cancer cell lines identifies multiple opportunities for drug repurposing. […] Cells were assayed in growth media at a density of 500-1,000 cells/well. […] After a 15 min incubation at room temperature, samples were analyzed for luminescence intensity using a ViewLux High-throughput CCD imager equipped with clear filters.
Results filed as inconclusive are left out. Active and inactive are the calls of the source. Calls follow the shape of the dose curve; as a rule, active = well fitted cell-killing curve with a large enough effect; inconclusive = small, poorly fitted or top-dose-only effect, or effect the other way; inactive = no such curve, though single readings can be large or run the other way.
Readout Kind: Potency

Cc1cc(CS(=O)(=O)c2ccccc2)cc(OCc2ccc(CN3CCC[C@H]3CO)cc2)c1 :: inactive
CC(C)(C)c1[nH]cnc1C=c1[nH]c(=O)c(=Cc2ccccc2)[nH]c1=O :: 0.018 µM (active)
N#CC(=C1Nc2ccccc2S1)c1ccnc(OCc2ccc(CN3CCOCC3)cc2)n1 :: inactive
Cc1ccc(S(=O)(=O)Nc2nc3ccccc3nc2Nc2ccc3nsnc3c2)cc1 :: inactive
C=CC(=O)Nc1cccc(Sc2nc(Nc3ccc(N4CCN(C)CC4)cc3)ncc2Cl)c1 :: 18.5 µM (active)
C[C@@H]1C[C@H]2[C@@H]3CCC4=CC(=O)C=C[C@]4(C)[C@@]3(F)[C@@H](O)C[C@]2(C)[C@@]1(O)C(=O)CO :: inactive
CC1=C(CC(=O)O)c2cc(F)ccc2C1=Cc1ccc(S(C)=O)cc1 (configuration not stated) :: inactive
CCNC(=O)c1noc(-c2cc(C(C)C)c(O)cc2O)c1-c1ccc(CN2CCOCC2)cc1 :: 0.293 µM (active)
CC1CNc2c(cccc2S(=O)(=O)N[C@@H](CCCN=C(N)N)C(=O)N2CC[C@@H](C)C[C@@H]2C(=O)O)C1 (some centres not stated) :: inactive
C[C@H](c1ccc(F)cc1CCCC(=O)O)N(c1cc(F)ccc1F)S(=O)(=O)c1ccc(Cl)cc1 :: inactive
CC[C@H](NC(=O)[C@H](C)NC)C(=O)N1C[C@@H](O)C[C@H]1Cc1c(-c2[nH]c3cc(F)ccc3c2C[C@H]2C[C@H](O)CN2C(=O)[C@H](CC)NC(=O)[C@H](C)NC)[nH]c2cc(F)ccc12 :: inactive
CC(C)C[C@@H](C(=O)N[C@H](C(=O)OC1CCCC1)c1ccccc1)[C@H](O)C(=O)NO :: inactive
